target: Cytochrome P450 3A4 (Homo sapiens); experiment: Inhibition of CYP3A4T in human liver microsomes using testosterone as substrate measured after 10 mins in presence of NADPH; type: ADME, Microsome
Sequence (P08684 whole entry): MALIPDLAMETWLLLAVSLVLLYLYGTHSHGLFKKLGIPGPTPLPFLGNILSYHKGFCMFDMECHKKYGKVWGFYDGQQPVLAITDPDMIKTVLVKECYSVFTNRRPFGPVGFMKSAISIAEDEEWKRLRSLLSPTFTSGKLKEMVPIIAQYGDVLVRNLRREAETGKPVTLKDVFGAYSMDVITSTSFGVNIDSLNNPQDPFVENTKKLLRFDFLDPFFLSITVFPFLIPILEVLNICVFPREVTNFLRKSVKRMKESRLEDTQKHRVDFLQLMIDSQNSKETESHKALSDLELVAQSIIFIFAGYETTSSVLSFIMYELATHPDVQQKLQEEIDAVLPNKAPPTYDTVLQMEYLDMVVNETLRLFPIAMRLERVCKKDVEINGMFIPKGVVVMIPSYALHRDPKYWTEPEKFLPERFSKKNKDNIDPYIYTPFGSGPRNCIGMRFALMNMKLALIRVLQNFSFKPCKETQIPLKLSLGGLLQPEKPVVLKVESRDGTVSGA
measured.parameter: IC50

Could you share which IC50 value was measured for Cc1cc(C)cc(C(N=[N+]=[N-])c2nc(SC(C)C)[nH]c(=O)c2C)c1 (stereo unspecified) ? > 50 µM

* * *

test system: Human immunodeficiency virus 1; assay: Anti-HIV activity against wild type HIV-1 IIIB infected in human MT4 cells assessed as inhibition of virus-induced cytopathic effect by MTT assay; type: functional, organism-based; settings: Human immunodeficiency virus 1, IIIB
EC50 under 300 nM gets label 1, anything at or over 300 nM gets label 0.

Below are worked cases with known answers.
- compound: "CC(C)Sc1nc(C(N=[N+]=[N-])c2ccc3ccccc3c2)c(C(C)C)c(=O)[nH]1 (configuration not stated)"
  target.system: "Human immunodeficiency virus 1"
  label.value: "label 0"
- compound: "COc1cc(OC)cc(C(N=[N+]=[N-])c2nc(SC(C)C)[nH]c(=O)c2C)c1 (configuration not stated)"
  target.system: "Human immunodeficiency virus 1"
  label.value: "label 0"

is_below(EC50, 300 nM) for Cc1ccc(C(N=[N+]=[N-])c2nc(SC(C)C)[nH]c(=O)c2C)cc1 (configuration not stated) ? label 1

Same for CCc1c(C(N=[N+]=[N-])c2ccc(Cl)cc2)nc(SC(C)C)[nH]c1=O (configuration not stated) label 1

Same for CC(C)Sc1nc(C(N=[N+]=[N-])c2ccc(-c3ccccc3)cc2)c(C(C)C)c(=O)[nH]1 (configuration not stated) label 0

Same for CCc1c(C(N=[N+]=[N-])c2ccc(Br)cc2)nc(SC(C)C)[nH]c1=O (configuration not stated) label 1

Same for CC(C)Sc1nc(C(N=[N+]=[N-])c2ccc(Br)cc2)c(C(C)C)c(=O)[nH]1 (configuration not stated) label 0

* * *

tested on: Human immunodeficiency virus 1; experiment: Anti-HIV activity against drug resistant HIV-1 harboring K103N mutant infected in human MT4 cells assessed as inhibition of virus-induced cytopathic effect by MTT assay; format: functional, organism-based; details: Human immunodeficiency virus 1, MT4
EC50 under 20 µM gets Satisfied, anything at or over 20 µM gets Not satisfied.

Below are worked cases with known answers.
- molecule: "CCc1c(C(N=[N+]=[N-])c2ccc(-c3ccccc3)cc2)nc(SC(C)C)[nH]c1=O (stereo not given)"
  label.value: "Not satisfied"
- molecule: "Cc1c(C(N=[N+]=[N-])c2ccc3ccccc3c2)nc(SC(C)C)[nH]c1=O (stereo not given)"
  label.value: "Not satisfied"
- molecule: "CCc1c(C(N=[N+]=[N-])c2ccccc2)nc(SC(C)C)[nH]c1=O (stereo not given)"
  label.value: "Satisfied"
- molecule: "Cc1c(C(N=[N+]=[N-])c2ccccc2)nc(SC(C)C)[nH]c1=O (stereo not given)"
  label.value: "Not satisfied"
- molecule: "COc1cc(OC)cc(C(N=[N+]=[N-])c2nc(SC(C)C)[nH]c(=O)c2C(C)C)c1 (stereo not given)"
  label.value: "Not satisfied"

is_below(EC50, 20 µM) for Cc1c(C(N=[N+]=[N-])c2cccc3ccccc23)nc(SC(C)C)[nH]c1=O (stereo not given) ? Not satisfied

Same for Cc1c(C(N=[N+]=[N-])c2ccc(Cl)cc2)nc(SC(C)C)[nH]c1=O (stereo not given) Not satisfied

Same for CC(C)Sc1nc(C(N=[N+]=[N-])c2ccc3ccccc3c2)c(C(C)C)c(=O)[nH]1 (stereo not given) Satisfied

Same for CCc1c(C(N=[N+]=[N-])c2cccc3ccccc23)nc(SC(C)C)[nH]c1=O (stereo not given) Not satisfied

Same for CCc1c(C(N=[N+]=[N-])c2ccc(C)cc2)nc(SC(C)C)[nH]c1=O (stereo not given) Satisfied
